- STUDY SYSTEM: T1, GIP receptor (UniProt P48546 22-466)
- T1 sequence (looked up): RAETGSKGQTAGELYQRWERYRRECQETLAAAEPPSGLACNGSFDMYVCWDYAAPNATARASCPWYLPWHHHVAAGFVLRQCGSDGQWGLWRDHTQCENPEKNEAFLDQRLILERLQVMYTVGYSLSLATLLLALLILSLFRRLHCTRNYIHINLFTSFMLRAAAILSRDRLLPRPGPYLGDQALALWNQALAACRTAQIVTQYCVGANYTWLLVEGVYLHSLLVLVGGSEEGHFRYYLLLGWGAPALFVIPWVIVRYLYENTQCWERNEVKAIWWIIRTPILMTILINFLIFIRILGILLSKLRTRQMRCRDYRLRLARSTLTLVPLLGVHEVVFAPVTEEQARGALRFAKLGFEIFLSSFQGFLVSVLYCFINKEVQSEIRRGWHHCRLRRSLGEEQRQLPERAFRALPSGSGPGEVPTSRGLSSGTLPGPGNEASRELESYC
- ASSAY COMMENT: cell-based or functional assay
Where no end group is shown, it is not given here. [ ]: non-standard residue; d: D form. The star is where a group is joined. C18 fatty acyl = 18 carbon fatty acyl group covalently attached to Lys; PEG 40 kDa = PEG (40 kDa) covalently attached to Cys; Palmitoyl = CCCCCCCCCCCCCCCC(=O)*; Myristoyl = CCCCCCCCCCCCCC(=O)*; Aib = CC(C)(N)C(=O)O
Provide the recorded relative activity for the entries that follow.
Answers are plain numbers, in %.

Below: 2 binders and their reported relative activity.
BINDER	QUANTITY UNIT	relative activity
YXQGTFTSDYSIYLDXQAAXEFVNWLLAGGPSSGAPPPSC (Orn at position 16; AIB at position 20) [mt-275]	%	112
Y[Aib]EGTFTSDYSIYLDKQAA[Aib]EFVC(PEG 40 kDa)WLLAGGPSSGAPPPSK-NH2 (also: PEG linkage structure not given here) [mt-331]	%	10.6

Hi, could you look up relative activity for each item in my list?
1. Y[Aib]EGTFTSDYSIYLDKQAA[Aib]EFVC(PEG 40 kDa)WLLAGGPSSGAPPPSK(C18 fatty acyl)-NH2 [mt-310]
2. Y[Aib]EGTFTSDYSIYLDKQAA[Aib]EFVC(PEG 40 kDa)WLLAGGPSSGAPPPSK(Palmitoyl)-NH2 [mt-298]
3. Y[Aib]EGTFTSDYSIYLDKQAA[Aib]EFVC(PEG 40 kDa)WLLAGGPSSGAPPPSK-NH2 (not fully specified) [mt-311]

[275, 404, 37.8]

Hi, could you look up relative activity for each item in my list?
1. Y[Aib]EGTFTSDYSIYLDKQAA[Aib]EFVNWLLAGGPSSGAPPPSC(PEG 40 kDa)-NH2 [mt-274]
2. Y[Aib]EGTFTSDYSIYLDKQAA[Aib]EFVC(PEG 40 kDa)WLLAGGPSSGAPPPSK(Myristoyl)-NH2 [mt-309]

1. 39.7
2. 226
